The measurements presented in this section are drawn from patent US20240360227A1.

- assayed.system: Recombinant human his-tagged IGF R extracellular domain protein (human) (UniProt P08069)
- assay.summary: SPR, Ab captured via anti-huIgG Fc, pH 7.4
Parameter threshold = 400000 M⁻¹ s⁻¹. Response is Satisfied when kon meets or exceeds it, else Not satisfied.

Recorded results for 4 binders are shown here.
# binder, qualitative.label
measured = [
    ("VRDN-02051 (antibody, V domains shown) VH: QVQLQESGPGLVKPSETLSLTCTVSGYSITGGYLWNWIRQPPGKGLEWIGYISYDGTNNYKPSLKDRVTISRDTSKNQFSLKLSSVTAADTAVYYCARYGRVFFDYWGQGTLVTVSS VL: DIVMTQSPLSLPVTPGEPASISCRSSQSIVHSNGNTYLQWYLQKPGQSPQLLIYKVSNRLYGVPDRFSGSGSGTDFTLKISRVEAEDVGVYYCHQGSHVPWTFGQGTKVEIK", "Not satisfied"),
    ("VRDN-02023 (antibody, V domains shown) VH: QVQLQESGPGLVKPSETLSLTCTVSGYSITGGYLWNWIRQPPGKGLEWIGYISYDGTNNYKPSLKDRVTISRDTSKNQFSLKLSSVTAADTAVYYCARYGHVFFDYWGQGTLVTVSS VL: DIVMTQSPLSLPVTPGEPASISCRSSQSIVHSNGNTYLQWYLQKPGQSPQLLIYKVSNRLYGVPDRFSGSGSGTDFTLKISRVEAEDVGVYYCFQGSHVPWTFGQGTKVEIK", "Satisfied"),
    ("VRDN-02061 (antibody, V domains shown) VH: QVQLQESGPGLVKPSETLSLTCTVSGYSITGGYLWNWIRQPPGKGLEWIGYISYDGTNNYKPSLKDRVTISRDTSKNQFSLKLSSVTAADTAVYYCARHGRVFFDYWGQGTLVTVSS VL: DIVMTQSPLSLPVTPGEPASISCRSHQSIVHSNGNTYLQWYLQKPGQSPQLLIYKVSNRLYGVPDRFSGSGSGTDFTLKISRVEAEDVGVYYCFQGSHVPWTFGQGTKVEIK", "Not satisfied"),
    ("VRDN-02008 (antibody, V domains shown) VH: QVQLQESGPGLVKPSETLSLTCTVSGYSITGGHLWNWIRQPPGKGLEWIGYISYDGTNNYKPSLKDRVTISRDTSKNQFSLKLSSVTAADTAVYYCARYGRVFFDYWGQGTLVTVSS VL: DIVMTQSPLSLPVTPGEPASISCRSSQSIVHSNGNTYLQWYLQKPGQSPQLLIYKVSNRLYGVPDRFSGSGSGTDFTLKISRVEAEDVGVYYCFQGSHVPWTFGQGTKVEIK", "Satisfied"),
]

Turning to the following binder.
Query block: Evaluate VRDN-02046 (antibody, V domains shown) VH: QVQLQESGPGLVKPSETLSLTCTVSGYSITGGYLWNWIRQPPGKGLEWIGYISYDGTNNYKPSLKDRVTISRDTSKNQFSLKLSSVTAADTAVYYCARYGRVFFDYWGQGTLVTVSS VL: DIVMTQSPLSLPVTPGEPASISCRSSQSIVHSNGNTYLQWYLQKPGQSPQLLIYKVHNRLYGVPDRFSGSGSGTDFTLKISRVEAEDVGVYYCFQGSHVPWTFGQGTKVEIK : kon at minimum 400000 M⁻¹ s⁻¹?
Result block: Not satisfied
